Biological target: CDK9 (Homo sapiens, UniProt P50750)
Construct: host or cells: HEK293
Sequence (P50750 whole entry): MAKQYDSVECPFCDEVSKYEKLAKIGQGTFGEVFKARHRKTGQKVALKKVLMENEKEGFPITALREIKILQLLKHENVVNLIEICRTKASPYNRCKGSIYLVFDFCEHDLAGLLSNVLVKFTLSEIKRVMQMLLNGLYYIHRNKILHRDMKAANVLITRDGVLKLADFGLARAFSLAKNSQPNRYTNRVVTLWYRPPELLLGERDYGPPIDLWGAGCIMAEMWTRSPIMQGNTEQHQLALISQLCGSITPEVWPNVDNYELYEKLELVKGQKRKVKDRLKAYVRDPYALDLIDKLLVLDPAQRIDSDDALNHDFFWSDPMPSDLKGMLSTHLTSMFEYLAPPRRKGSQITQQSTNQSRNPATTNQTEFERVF
Assay: CDK9 HIBIT PQ (protein quantification), degradation
Format: cell-based
Conditions: Max = Maximum
Cut-off 70% on Dmax: below means 1.0, at or above means 0.0.

>  <COMPOUND>
CC(C)Oc1c(-c2cn[nH]c2)ncn2nc(Nc3ccc(S(=O)(=O)N4CCCC(CN5CCC(c6ccc7c(N8CCC(=O)NC8=O)nn(C)c7c6)CC5)C4)cc3F)nc12 (single isomer, unassigned) [Compound 94]

>  <SYSTEM_TESTED>
CDK9 (Homo sapiens, UniProt P50750)

>  <LABEL_CLASS>
0.0

$$$$
>  <COMPOUND>
CC(C)Oc1c(-c2cn[nH]c2)ncn2nc(Nc3ccc(S(=O)(=O)N(C)CCCN4CCC(c5ccc6c(c5)n(C)c(=O)n6C5CCC(=O)NC5=O)CC4)c4cnccc34)nc12 (racemic) [Compound 61]

>  <SYSTEM_TESTED>
CDK9 (Homo sapiens, UniProt P50750)

>  <LABEL_CLASS>
0.0

$$$$
>  <COMPOUND>
CC(C)Oc1c(-c2cn[nH]c2)ncn2nc(Nc3ccc(S(=O)(=O)c4cccc(CN5CCN(c6ccc7c(N8CCC(=O)NC8=O)nn(C)c7c6)C6CC65)c4)cc3F)nc12 (stereo not shown) [Compound 44]

>  <SYSTEM_TESTED>
CDK9 (Homo sapiens, UniProt P50750)

>  <LABEL_CLASS>
1.0

$$$$
>  <COMPOUND>
CC(C)Oc1c(-c2cn[nH]c2)ncn2nc(Nc3ccc(S(=O)(=O)N(C)CCCN4CCN(c5ccc6c(c5)n(C)c(=O)n6C5CCC(=O)NC5=O)C[C@H]4C(C)C)cc3F)nc12 (stereo partly shown) [Compound 65]

>  <SYSTEM_TESTED>
CDK9 (Homo sapiens, UniProt P50750)

>  <LABEL_CLASS>
1.0

$$$$
>  <COMPOUND>
CC(C)Oc1c(-c2cn[nH]c2)ncn2nc(Nc3ccc(S(=O)(=O)N(C)CCCN4CCC(c5cccc6c(N7CCC(=O)NC7=O)nn(C)c56)CC4)cc3F)nc12 [Compound 24]

>  <SYSTEM_TESTED>
CDK9 (Homo sapiens, UniProt P50750)

>  <LABEL_CLASS>
1.0

$$$$
>  <COMPOUND>
CC(C)Oc1c(-c2cn[nH]c2)ncn2nc(Nc3ccc(S(=O)(=O)N(C)CCCN4CCN(c5cccc6c5n(C)c(=O)n6C5CCC(=O)NC5=O)CC4)cc3F)nc12 (racemic) [Compound 17]

>  <SYSTEM_TESTED>
CDK9 (Homo sapiens, UniProt P50750)

>  <LABEL_CLASS>
0.0

$$$$
>  <COMPOUND>
CC(C)Oc1c(-c2cn[nH]c2)ncn2nc(Nc3ccc(S(=O)(=O)c4cccc(C[C@H]5C[C@@H](c6ccc7c(c6)CN(C6CCC(=O)NC6=O)C7=O)C5)c4)cc3F)nc12 (stereo partly shown) [Compound 29]

>  <SYSTEM_TESTED>
CDK9 (Homo sapiens, UniProt P50750)

>  <LABEL_CLASS>
1.0

$$$$
>  <COMPOUND>
CC(C)Oc1c(-c2cn[nH]c2)ncn2nc(Nc3ccc(S(=O)(=O)c4cccc(C[C@H]5C[C@H](c6ccc7c(c6)CN([C@@H]6CCC(=O)NC6=O)C7=O)C5)c4)cc3F)nc12 (stereo in doubt) [Compound 80]

>  <SYSTEM_TESTED>
CDK9 (Homo sapiens, UniProt P50750)

>  <LABEL_CLASS>
1.0

$$$$
>  <COMPOUND>
CC(C)Oc1c(-c2cn[nH]c2)ncn2nc(Nc3ccc(S(=O)(=O)c4cccc(CC5CC(c6ccc7c(N8CCC(=O)NC8=O)nn(C)c7c6)C5)c4)cc3F)nc12 (stereo not shown) [Compound 33]

>  <SYSTEM_TESTED>
CDK9 (Homo sapiens, UniProt P50750)

>  <LABEL_CLASS>
1.0

$$$$
>  <COMPOUND>
CC(C)Oc1c(-c2cn[nH]c2)ncn2nc(Nc3ccc(S(=O)(=O)c4cccc(OC5CN(C6CCN(c7ccc8c(c7)CN(C7CCC(=O)NC7=O)C8=O)CC6)C5)c4)cc3F)nc12 (racemic) [Compound 23]

>  <SYSTEM_TESTED>
CDK9 (Homo sapiens, UniProt P50750)

>  <LABEL_CLASS>
1.0

$$$$
>  <COMPOUND>
CC(C)Oc1c(-c2cn[nH]c2)ncn2nc(Nc3ccc(S(=O)(=O)c4cccc(CN5CCC(c6ccc7c(c6)n(C)c(=O)n7C6CCC(=O)NC6=O)CC5)c4)cc3F)nc12 (racemic) [Compound 25]

>  <SYSTEM_TESTED>
CDK9 (Homo sapiens, UniProt P50750)

>  <LABEL_CLASS>
1.0

$$$$
>  <COMPOUND>
CC(C)Oc1c(-c2cn[nH]c2)ncn2nc(Nc3ccc(S(=O)(=O)N4CCC[C@@H](CN5CC[C@H](c6ccc7c(N8CCC(=O)NC8=O)nn(C)c7c6)CC5(C)C)C4)cc3F)nc12 (single isomer, unassigned) [Compound 103]

>  <SYSTEM_TESTED>
CDK9 (Homo sapiens, UniProt P50750)

>  <LABEL_CLASS>
0.0

$$$$
>  <COMPOUND>
CC(C)Oc1c(-c2cn[nH]c2)ncn2nc(NC3CCN(S(=O)(=O)c4cccc(CN5CCN(c6cc7c(cc6F)C(=O)N(C6CCC(=O)NC6=O)C7)CC5)c4)CC3)nc12 (racemic) [Compound 3]

>  <SYSTEM_TESTED>
CDK9 (Homo sapiens, UniProt P50750)

>  <LABEL_CLASS>
0.0

$$$$
>  <COMPOUND>
CC(C)Oc1c(-c2cn[nH]c2)ncn2nc(Nc3ccc(S(=O)(=O)N4CCCC(CN5CCN(c6ccc7c(N8CCC(=O)NC8=O)nn(C)c7c6)C(C)C5)C4)cc3F)nc12 (stereo not shown) [Compound 91]

>  <SYSTEM_TESTED>
CDK9 (Homo sapiens, UniProt P50750)

>  <LABEL_CLASS>
1.0

$$$$
>  <COMPOUND>
CC(C)Oc1c(-c2cn[nH]c2)ncn2nc(Nc3ccc(S(=O)(=O)c4cccc(CN5CCC(c6cccc7c(N8CCC(=O)NC8=O)nn(C)c67)CC5)c4)cc3F)nc12 [Compound 26]

>  <SYSTEM_TESTED>
CDK9 (Homo sapiens, UniProt P50750)

>  <LABEL_CLASS>
1.0

$$$$
>  <COMPOUND>
CC(C)Oc1c(-c2cn[nH]c2)ncn2nc(Nc3ccc(S(=O)(=O)N4CCC(CN5CCC(c6cccc7c6n(C)c(=O)n7C6CCC(=O)NC6=O)CC5)CC4)cc3F)nc12 (racemic) [Compound 14]

>  <SYSTEM_TESTED>
CDK9 (Homo sapiens, UniProt P50750)

>  <LABEL_CLASS>
0.0

$$$$
>  <COMPOUND>
CC(C)Oc1c(-c2cn[nH]c2)ncn2nc(Nc3ccc(S(=O)(=O)c4cccc(N5CCC(CN6CCN(c7ccc8c(c7)CN(C7CCC(=O)NC7=O)C8=O)CC6)CC5)c4)cc3F)nc12 (racemic) [Compound 22]

>  <SYSTEM_TESTED>
CDK9 (Homo sapiens, UniProt P50750)

>  <LABEL_CLASS>
0.0

$$$$
>  <COMPOUND>
CC(C)Oc1c(-c2cn[nH]c2)ncn2nc(Nc3ccc(S(=O)(=O)N4CCC5(CCN(C6CCN(c7ccc8c(c7)n(C)c(=O)n8C7CCC(=O)NC7=O)CC6)C5)C4)cc3F)nc12 (stereo not shown) [Compound 36]

>  <SYSTEM_TESTED>
CDK9 (Homo sapiens, UniProt P50750)

>  <LABEL_CLASS>
0.0

$$$$
>  <COMPOUND>
CC(C)Oc1c(-c2cn[nH]c2)ncn2nc(N[C@H]3CCN(S(=O)(=O)N(C)CCCN4CCC(c5cccc6c5n(C)c(=O)n6C5CCC(=O)NC5=O)CC4)C[C@H]3C)nc12 (stereo partly shown) [Compound 7]

>  <SYSTEM_TESTED>
CDK9 (Homo sapiens, UniProt P50750)

>  <LABEL_CLASS>
0.0

$$$$

###

Molecular target: CDK9 (Homo sapiens, UniProt P50750)
Construct: host or cells: HEK293
Assay: CDK9 HIBIT PQ (protein quantification), degradation
Format: cell-based
Details: PQ = Protein Quantification

>  <COMPOUND>
CC(C)Oc1c(-c2cn[nH]c2)ncn2nc(Nc3ccc(S(=O)(=O)c4cccc(CN5CC6(C5)CN(c5ccc7c(c5)CN(C5CCC(=O)NC5=O)C7=O)C6)c4)cc3F)nc12 (racemic) [Compound 10]

>  <SYSTEM_TESTED>
CDK9 (Homo sapiens, UniProt P50750)

>  <UNIT_LABEL>
nM

>  <DC50>
25.5

$$$$
>  <COMPOUND>
CC(C)Oc1c(-c2cn[nH]c2)ncn2nc(Nc3ccc(S(=O)(=O)N4CCCC(CN5CCC(c6ccc7c(N8CCC(=O)NC8=O)nn(C)c7c6)CC5)C4)cc3F)nc12 (single isomer, unassigned) [Compound 95]

>  <SYSTEM_TESTED>
CDK9 (Homo sapiens, UniProt P50750)

>  <UNIT_LABEL>
nM

>  <DC50>
7.24

$$$$
>  <COMPOUND>
CC(C)Oc1c(-c2cn[nH]c2)ncn2nc(Nc3ccc(S(=O)(=O)c4cccc(CN5CCC(c6cccc7c6n(C)c(=O)n7C6CCC(=O)NC6=O)CC5)c4)cc3F)nc12 (racemic) [Compound 13]

>  <SYSTEM_TESTED>
CDK9 (Homo sapiens, UniProt P50750)

>  <UNIT_LABEL>
nM

>  <DC50>
6.6

$$$$
>  <COMPOUND>
CC(C)Oc1c(-c2cn[nH]c2)ncn2nc(N[C@H]3CCN(S(=O)(=O)c4cccc(CN5CCN(c6ccc7c(N8CCC(=O)NC8=O)nn(C)c7c6)CC5C)c4)C[C@H]3C)nc12 (some centres unmarked) [Compound 51]

>  <SYSTEM_TESTED>
CDK9 (Homo sapiens, UniProt P50750)

>  <UNIT_LABEL>
nM

>  <DC50>
20.2

$$$$
>  <COMPOUND>
CC(C)Oc1c(-c2cn[nH]c2)ncn2nc(Nc3ccc(S(=O)(=O)N4CCCC(CN5CCC(c6ccc7c(N8CCC(=O)NC8=O)nn(C)c7c6)CC5)C4)cc3F)nc12 (racemic) [Compound 87]

>  <SYSTEM_TESTED>
CDK9 (Homo sapiens, UniProt P50750)

>  <UNIT_LABEL>
nM

>  <DC50>
3.32

$$$$
